Taken from PubChem BioAssay (NCI).

// reported TGI for each item listed
- System: PC-3 prostate
- experiment: NCI tumour cell line growth inhibition, 48 h
*1 amine or outer side, *2 acyl side, *3 side chain or, on linkers, in order; H or OH if unused. Where a SMILES comes first, the peptide text is derived from it. Bridges are numbered along the chain shown (N, C = ends). [ ]: non-standard residue; d: D form. The star is where a group is joined. ξ: configuration not given here. X34 = O=C(C(CCCCNO[*:3])N[*:1])[*:2]; Fmoc = O=C(OCC1c2ccccc2-c2ccccc21)*; ξW = NC(Cc1c[nH]c2ccccc12)C(=O)O; ξP = O=C(O)C1CCCN1

molecule: Cc1ccc(S(=O)(=O)N(CCOc2ccc(/C(N)=N/Cl)cc2)CCOc2ccc(/C(N)=N\Cl)cc2)cc1
TGI: > 100 µM
--
molecule: O=C1/C(=C/c2ccccc2)N=C(c2ccccc2)N1n1c(-c2ccccc2)nc2ccccc2c1=O
TGI: > 100 µM
--
molecule: Cc1cc(N(CCOS(C)(=O)=O)CCOS(C)(=O)=O)ccc1C=Nc1ccc(-c2nc(Cc3ccccc3)sc2C)cc1
TGI: 22.1 µM
--
molecule: C=C(C)C12CC(COC(=O)c3ccccc3)C34OC5(OC1C3C1OC1(CO)C(O)C1(O)C(OC(=O)c3ccccc3)C(C)C(C(C)CCCCCCC5O)C14)O2 (stereo not drawn)
TGI: > 100 µM
--
molecule: NC(=O)CNC(=O)C1CCCN1C(=O)C1CCCCNOC(=O)CC[C@@H](NC(=O)OCC2c3ccccc3-c3ccccc32)C(=O)NC(Cc2c[nH]c3ccccc23)C(=O)N1 (stereo partly drawn) (Fmoc-[dE][ξW][X34][ξP]G-NH2; ester 1-3)
TGI: > 100 µM

TGI on PC-3 prostate for O=C(CN1c2ccccc2Sc2ccccc21)N1CCNCC1 is > 100 µM

TGI on PC-3 prostate for Cc1c(-c2nc3ccccc3[nH]2)c(=O)n(-c2ccccc2)n1C is > 100 µM

TGI on PC-3 prostate for Nc1nc2cc3nc(N)c(N)nc3cc2nc1N is > 100 µM

TGI on PC-3 prostate for NC(C(F)(F)F)(C(F)(F)F)P(=O)(Cc1ccccc1)Cc1ccccc1 is > 100 µM

TGI on PC-3 prostate for C=C1CC(COc2cc(=O)oc3ccccc23)(c2ccccc2)OC1=O (stereo not drawn) is 5.9 µM

---

- Test system: NCI-H460 lung
- experiment: NCI tumour cell line growth inhibition, 48 h
metric_name: TGI

TGI on NCI-H460 lung for CC1(O)CC(C(F)(F)F)(C(F)(F)F)OC1=O (stereo not drawn) is > 10 µM

TGI on NCI-H460 lung for CCOc1cccc(/C=N/NC(=O)c2ccccc2Nc2ccnc(C(F)(F)F)c2)c1O is 7.05 µM

TGI on NCI-H460 lung for CN1CCN(Cc2ccc(NC(=O)c3cncc(C#Cc4cnc(N)c5ccc(C#N)cc45)c3)cc2C(F)(F)F)CC1 is 1.1 µM

TGI on NCI-H460 lung for O=NN(Cc1ccc(Cl)cc1)C(C(=O)O)c1ccccc1 (stereo not drawn) is > 100 µM

TGI on NCI-H460 lung for COc1ccc2c(c1)c(-c1nc(-c3cn(C)c4ncccc34)cs1)cn2CCCN1CCCCC1 is 3.7 µM

TGI on NCI-H460 lung for CC[C@]1(Cc2ccc(OC)c(OC)c2)CN(S(=O)(=O)c2ccc(C)cc2)C[C@@H]1OC(C)=O is > 100 µM

TGI on NCI-H460 lung for COc1ccccc1Nc1nc(N)nc(N)c1N=O is > 100 µM

TGI on NCI-H460 lung for CN1C(=O)N(c2ccccc2)C2(CCN(CC3COc4ccccc4O3)CC2)C1=O (stereo not drawn) is > 100 µM

TGI on NCI-H460 lung for CCNCCNc1cc(-c2ccc(C(=O)OC)cc2)c(C#N)c2nc3ccccc3n12 is 3.31 µM

TGI on NCI-H460 lung for O=C(Nc1ccc(N2CCNCC2)cc1)c1[nH]ncc1Nc1cc(Oc2ccccc2)ncn1 is 2.3 µM
